Recorded values, source patent US20080199426A1.

Biological target: T1, thrombin-activated EphA2 (endogenous, from lysate of HUVECs stimulated with 1 U/ml thrombin for 5 mins) (human, UniProt P29317 24-976, tyrosine phosphorylated after thrombin stimulation (sites not given))
T1 construct: Endogenous EphA2 in a HUVEC lysate, detected on the array with a biotinylated anti-human EphA2 antibody; No signal peptide limits are stated
T1 sequence (P29317 24-976 limits assumed): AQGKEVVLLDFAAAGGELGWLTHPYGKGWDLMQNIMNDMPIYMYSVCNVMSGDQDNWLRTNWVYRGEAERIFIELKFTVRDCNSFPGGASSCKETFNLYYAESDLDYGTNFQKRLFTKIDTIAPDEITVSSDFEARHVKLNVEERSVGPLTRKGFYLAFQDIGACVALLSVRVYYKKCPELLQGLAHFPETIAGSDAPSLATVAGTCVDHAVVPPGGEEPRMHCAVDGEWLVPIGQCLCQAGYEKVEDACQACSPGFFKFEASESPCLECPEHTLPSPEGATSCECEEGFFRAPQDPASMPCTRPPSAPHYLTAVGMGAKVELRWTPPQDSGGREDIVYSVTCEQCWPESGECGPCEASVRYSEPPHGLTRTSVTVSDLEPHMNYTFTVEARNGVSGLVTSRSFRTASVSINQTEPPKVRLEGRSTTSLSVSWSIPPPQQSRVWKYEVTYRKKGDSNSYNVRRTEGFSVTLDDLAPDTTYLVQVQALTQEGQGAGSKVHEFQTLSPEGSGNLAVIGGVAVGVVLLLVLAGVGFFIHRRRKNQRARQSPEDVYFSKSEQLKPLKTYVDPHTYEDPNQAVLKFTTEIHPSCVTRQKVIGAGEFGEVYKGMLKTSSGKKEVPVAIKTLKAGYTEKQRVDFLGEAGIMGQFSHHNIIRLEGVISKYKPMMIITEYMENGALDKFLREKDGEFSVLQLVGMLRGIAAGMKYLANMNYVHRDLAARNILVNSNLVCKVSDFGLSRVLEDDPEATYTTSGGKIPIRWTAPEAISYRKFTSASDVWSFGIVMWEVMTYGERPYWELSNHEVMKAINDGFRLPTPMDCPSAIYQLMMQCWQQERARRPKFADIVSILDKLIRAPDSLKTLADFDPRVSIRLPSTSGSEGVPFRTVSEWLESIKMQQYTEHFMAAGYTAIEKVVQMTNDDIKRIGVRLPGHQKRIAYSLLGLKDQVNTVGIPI
Test: SH2 domain array with thrombin-stimulated HUVEC lysate, anti-EphA2 detection
measured_property: binding result

{"binder": "SH2 domain of Lyn (other, UniProt P07948 129-226, looked up, domain: SH2 domain) WFFKDITRKDAERQLLAPGNSAGAFLIRESETLKGSFSLSVRDFDPVHGDVIKHYKIRSLDNGGYYISPRITFPCISDMIKHYQKQADGLCRRLEKAC", "measured_property": "binding result", "recorded_result": "no binding"}
{"binder": "SH2 domain of Abl1 (other, UniProt P00519 127-217, looked up, domain: SH2 domain) WYHGPVSRNAAEYLLSSGINGSFLVRESESSPGQRSISLRYEGRVYHYRINTASDGKLYVSSESRFNTLAELVHHHSTVADGLITTLHYPA", "measured_property": "binding result", "recorded_result": "no binding"}
